The variants listed here are annotated with their normalized RNA/DNA level without ligand (log10).
B1: library; a variant is named by its letters at N, in order (parent)
chain: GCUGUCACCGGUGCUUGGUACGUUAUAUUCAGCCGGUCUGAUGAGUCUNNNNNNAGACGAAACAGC

- Variants of: B1
- PROCEDURE_DETAILS: normalized RNA/DNA level without ligand (relative to sTRSVctl = 100) (log10 (% of sTRSVctl)); HEK293T overexpressing SLC46A1; higher = less ribozyme self-cleavage, higher mRNA level
- CONDITIONS: without (6R,S)-folinic acid; ligand present: no
Please state the value as a number alone, without comment.

Tell me the measured normalized RNA/DNA level without ligand (log10) of AUGUCG , please.
1.93

Tell me the measured normalized RNA/DNA level without ligand (log10) of GAGUUA , please.
2.01

Tell me the measured normalized RNA/DNA level without ligand (log10) of UCGGCG , please.
2

Tell me the measured normalized RNA/DNA level without ligand (log10) of UAUGCU , please.
2.01

Tell me the measured normalized RNA/DNA level without ligand (log10) of CUUUGA , please.
2.02

Tell me the measured normalized RNA/DNA level without ligand (log10) of UUAUGC , please.
1.99

Others:
Tell me the measured normalized RNA/DNA level without ligand (log10) of CCGCAU , please.
2

Tell me the measured normalized RNA/DNA level without ligand (log10) of CGAAGC , please.
2.02

Tell me the measured normalized RNA/DNA level without ligand (log10) of CGAUAG , please.
1.96

Tell me the measured normalized RNA/DNA level without ligand (log10) of UGACAC , please.
2

Tell me the measured normalized RNA/DNA level without ligand (log10) of AGCGCG , please.
1.97

Just for reference, the supplement of paper PMC6757056 is where these values come from.
